Test system: waterhemp (common waterhemp, Amaranthus rudis)
measurement-protocol: Test D pre-/postemergence plant response
Assay type: in vivo
protocol-conditions: Preemergence; 16 g ai/ha; scale 0 to 100 (0 no effect, 100 complete control)
From the text: […]
I'd appreciate it if you could supply Plant response rating, Waterhemp values for the items below.
Answers are plain numbers.

Use these answered entries as a reference point.
N#Cc1cccc(Oc2ncc(Cl)cn2)c1-c1cc(C(F)F)on1 [Compound 180]    40
Cc1cc(-c2ccccc2Oc2ncc(Cl)cn2)no1 [Compound 60]    80
FC(F)(F)c1cc(-c2ccccc2Oc2ncc(Cl)cn2)ncn1 [Compound 54]    25
Cc1cc(-c2c(F)cccc2Oc2ncc(Cl)cn2)on1 [Compound 229]    95

// query Determine reported Plant response rating, Waterhemp for Clc1cnc(Oc2ccccc2-c2cc(C3CC3)on2)nc1 [Compound 183] ; test system: waterhemp (common waterhemp, Amaranthus rudis).
// result 10

###

Kindly supply the reported Plant response rating, Pigweed values for the records listed here.
System: pigweed (Amaranthus retroflexus)
measurement-protocol: Test B pre-/postemergence plant response
Assay type: in vivo
protocol-conditions: Postemergence, 500 g ai/ha; 0 to 100 scale (0 no effect, 100 complete control)
Numbers only.

Hi team, please reply with Plant response rating, Pigweed for each item in this list.
1. Clc1cnc(Oc2ccccc2-c2ccon2)nc1
2. FC(F)(F)c1csc(-c2ccccc2Oc2ncc(Br)cn2)n1
3. ON=Cc1cc(-c2ccccc2Oc2ncc(Cl)cn2)no1
4. Cn1nnc(-c2ccccc2Oc2ncc(Cl)cn2)n1

// result
100
0
20
100

Hey, quick one: what's Plant response rating, Pigweed for each of these?
1. Cn1nnnc1-c1ccccc1Oc1ncc(Cl)cn1
2. Cn1nnnc1-c1ccccc1Oc1ncc(Br)cn1

// result
[70, 30]

###

Tested on: ragweed (common ragweed, Ambrosia elatior)
measurement-protocol: Test B pre-/postemergence plant response
Type: in vivo
protocol-conditions: 125 g ai/ha, postemergence; 0 to 100 scale, 0 no effect, 100 complete control
experimental-endpoint: Plant response rating, Ragweed

N#Cc1cccc(Oc2ncc(Cl)cn2)c1-c1cc(C(F)F)on1    50
Cc1csc(-c2c(C#N)cccc2Oc2ncc(Cl)cn2)c1    0
Cn1cnc(-c2ccccc2Oc2ncc(Cl)cn2)n1    0

Okay, here is my list. What is Plant response rating, Ragweed for each of these?
1. Cc1cc(-c2ccccc2Oc2ncc(Cl)cn2)no1
2. Fc1cccc(Oc2ncc(Br)cn2)c1-c1cc(C(F)F)on1
3. Cc1ccnc(-c2ccccc2Oc2ncc(Cl)cn2)c1
4. Cn1nc(-c2c(Br)cccc2Oc2ncc(Cl)cn2)cc1C(F)(F)F

// result
60
50
0
0

Parameter requested: Plant response rating, Ragweed. Apply to each item below.
1. Clc1cnc(Oc2ccccc2-c2cc(C(Cl)Cl)on2)nc1
2. N#Cc1cc(-c2ccccc2Oc2ncc(Cl)cn2)no1

// result
50
0

// query For FC(F)(Br)c1cc(-c2ccccc2Oc2ncc(Cl)cn2)no1 , write its Plant response rating, Ragweed.
// result 40

###

System: waterhemp (common waterhemp, Amaranthus rudis)
measurement-protocol: Test D pre-/postemergence plant response
Type: in vivo
protocol-conditions: Amaranthus tuberculatus, pre-emergence; Preemergence; 16 g ai/ha; scale 0 to 100 (0 no effect, 100 complete control); read-out: Plant response rating, Waterhemp
experimental-endpoint: pest or weed control at 16 g/ha (%)
Numbers only, in %.

FC(F)c1cc(-c2ccccc2Oc2ncc(Cl)cn2)on1    100
FC(F)(F)c1cc(-c2ccccc2Oc2ncc(Cl)cn2)no1    98
Fc1cccc(Oc2ncc(Br)cn2)c1-c1cc(C(F)F)no1    100
FC(F)c1cc(-c2ccccc2Oc2ncc(Cl)cn2)no1    100
N#Cc1cccc(Oc2ncc(Cl)cn2)c1-c1cc(C(F)(F)F)ccn1    100

// query Specify pest or weed control at 16 g/ha for FCc1cc(-c2ccccc2Oc2ncc(Cl)cn2)no1 and stop.
// result 100

###

Exercise: for every item that follows, state its recorded Morningglory plant response rating.
System: morningglory (Ipomoea coccinea)
measurement-protocol: Test D pre-/postemergence plant response
Format: in vivo
protocol-conditions: Postemergence, 62 g ai/ha; scale 0 to 100, 0 no effect, 100 complete control
Give bare numbers.

Please state Morningglory plant response rating for every molecule in the list that follows.
1. N#Cc1cccc(Oc2ncc(Cl)cn2)c1-c1cc(C(F)F)on1
2. Cc1cc(-c2c(F)cccc2Oc2ncc(Cl)cn2)on1
3. Clc1cnc(Oc2ccccc2-c2cc(C3CC3)on2)nc1
4. Clc1cnc(Oc2ccccc2-c2ccon2)nc1
5. FC(Cl)(Cl)c1cc(-c2ccccc2Oc2ncc(Cl)cn2)no1
6. Fc1cccc(Oc2ncc(Cl)cn2)c1-c1cc(C(F)(F)F)no1
7. FC(F)c1cc(-c2ccccc2Oc2ncc(Br)cn2)on1

// result
1: 90; 2: 25; 3: 90; 4: 10; 5: 80; 6: 80; 7: 75

###

System: sandbur (southern sandbur, Cenchrus echinatus)
measurement-protocol: Test F pre-/postemergence plant response
Assay type: in vivo
protocol-conditions: Cenchrus echinatus, pre-emergence; 31 g ai/ha Preemergence; scale 0 to 100; read-out: Plant response rating, Sandbur
Please provide measured pest or weed control at 31 g/ha for the entries that follow.
Respond with a number, then the unit of measure.

Fc1cccc(Oc2ncc(Cl)cn2)c1-c1cc(C(F)F)no1    10%

Hello, I would appreciate it if you could give pest or weed control at 31 g/ha for each entry below.
1. Fc1cccc(Oc2ncc(Cl)cn2)c1-c1cc(C(F)(F)F)on1
2. Fc1cccc(Oc2ncc(Cl)cn2)c1-c1cc(C(F)F)on1
3. FC(F)(F)c1cc(-c2ccccc2Oc2ncc(Cl)cn2)no1

// result
["30%", "0%", "5%"]

###

Test system: barnyardgrass (Echinochloa crus-galli)
measurement-protocol: Test C flooded paddy test plant response
Type: in vivo
protocol-conditions: Flood, 250 g ai/ha; scale of 0 to 100 where 0 is no effect and 100 is complete control; 13 to 15 days
For each entry below, report its Barnyardgrass plant response rating value.
One number for each entry.

COc1ccnc(-c2ccccc2Oc2ncc(Cl)cn2)c1 [Compound 219]    0
Fc1cnc(Oc2ccccc2-c2cnccn2)nc1 [Compound 164]    0
Clc1cnc(Oc2ccccc2-c2ccns2)nc1 [Compound 233]    0
COc1cccc(Oc2ncc(Cl)cn2)c1-c1cc(C(F)(F)F)no1 [Compound 104]    20
FC(F)c1cc(-c2c(Cl)cccc2Oc2ncc(Br)cn2)on1 [Compound 121]    60
COc1cnc(Oc2ccccc2-c2cc(C(F)F)no2)nc1 [Compound 213]    0
Cc1csc(-c2ccccc2Oc2ncc(Cl)cn2)c1 [Compound 216]    0
FC(F)(F)c1ccc(-c2ccccc2Oc2ncc(Cl)cn2)cc1 [Compound 43]    0
Brc1cnc(Oc2ccccc2-c2ccns2)nc1 [Compound 234]    0
FC(F)(F)C(F)(F)c1cc(-c2ccccc2Oc2ncc(Cl)cn2)no1 [Compound 142]    0

// query Please give measured Barnyardgrass plant response rating of the following entry: Cn1nnc(-c2ccccc2Oc2ncc(Cl)cn2)n1 [Compound 48]
// result 0

###

Test system: corn (Zea mays)
measurement-protocol: Test B pre-/postemergence plant response
Type: in vivo
protocol-conditions: 31 g ai/ha, Postemergence; 0 to 100 scale, 0 no effect, 100 complete control
experimental-endpoint: Plant response rating, Corn

Fc1cc(F)c(-c2cc(C(F)F)no2)c(Oc2ncc(Cl)cn2)c1 [Compound 107]    0
COc1cccc(Oc2ncc(Cl)cn2)c1-c1cc(C(F)F)no1 [Compound 103]    0
Brc1cnc(Oc2ccccc2-c2cc(Br)no2)nc1 [Compound 119]    0
N#Cc1cccc(Oc2ncc(Cl)cn2)c1-c1ccsc1 [Compound 112]    10

# batch: return Plant response rating, Corn for each of the 4 molecules below
1. FC(F)Oc1cccc(Oc2ncc(Cl)cn2)c1-c1cc(C(F)F)on1 [Compound 131]
2. COc1cccc(Oc2ncc(F)cn2)c1-c1cc(C)no1 [Compound 111]
3. FC(F)(F)c1cc(-c2c(Cl)cccc2Oc2ncc(Cl)cn2)on1 [Compound 126]
4. FC(F)(F)COCc1cc(-c2ccccc2Oc2ncc(Br)cn2)on1 [Compound 129]

// result
1. 20
2. 0
3. 20
4. 0

// query Provide only the value of recorded Plant response rating, Corn for Fc1cccc(Oc2ncc(Br)cn2)c1-c1cc(C(F)F)on1 [Compound 118]
// result 50

###

For each record, write down the corresponding plant injury at 16 g/ha.
Tested on: oilseed rape (Brassica napus)
measurement-protocol: Test E pre-/postemergence plant response
Format: in vivo
protocol-conditions: pre-emergence, 16 g ai/ha, Preemergence, scale 0 to 100, read-out: Plant response rating, Oilseed Rape
Numbers only, in %.

FC(F)c1cc(-c2ccccc2Oc2ncc(Br)cn2)no1    10
Fc1cccc(Oc2ncc(Cl)cn2)c1-c1cc(C(F)F)no1    35
FC(F)(F)c1cc(-c2ccccc2Oc2ncc(Cl)cn2)no1    60
FC(F)c1cc(-c2ccccc2Oc2ncc(Cl)cn2)no1    60

Now consider a different compound.
// query Return plant injury at 16 g/ha (reported value) for this compound: Fc1cccc(Oc2ncc(Br)cn2)c1-c1cc(C(F)F)no1
// result 50
